# credit: the supplement of paper PMC9112550

# Test system: Escherichia coli TOP10
# protocolSummary: shrunken log2 fold change of peptide-encoding DNA abundance (4.5 h post-induction vs induction); higher = less antimicrobial activity (less host growth inhibition)
# conditionDetails: time post-induction: 4.5 h; library: site-saturation at positions 5, 18, 19, 20
propertyName: shrunken log2 fold change
No unit in the answer, only the number.

Provide shrunken log2 fold change value for the following sequence: RRIRIRPPRLPRPRPRPWYPPRP
-0.238

Supply shrunken log2 fold change value. Item: RRIRERPPRLPRPRPRPIKAPRP
-0.00435

Tell me shrunken log2 fold change reported for RRIRERPPRLPRPRPRPDVNPRP
-0.0793

Give a short answer stating reported shrunken log2 fold change for RRIRRRPPRLPRPRPRPWMSPRP .
0.118

Read the entry RRIRHRPPRLPRPRPRPMIRPRP and write its reported shrunken log2 fold change.
-0.173

Look up and report measured shrunken log2 fold change for this entry: RRIRARPPRLPRPRPRPLVSPRP
0.653

Given RRIRCRPPRLPRPRPRPRSVPRP , respond with its shrunken log2 fold change.
0.318

Identify shrunken log2 fold change associated with the sequence RRIRPRPPRLPRPRPRPQPCPRP
-0.0627

###

# Tested on: Escherichia coli TOP10
# protocolSummary: shrunken log2 fold change of peptide-encoding DNA abundance (4.5 h post-induction vs induction); higher = less antimicrobial activity (less host growth inhibition)
# conditionDetails: time post-induction: 4.5 h; library: site-saturation at positions 5, 18, 19, 20
propertyName: shrunken log2 fold change
Field format: numeric only.

Quote Escherichia coli TOP10 shrunken log2 fold change for entry RRIRQRPPRLPRPRPRPTEYPRP .
-0.401

Specify shrunken log2 fold change for RRIRCRPPRLPRPRPRPTEDPRP , system Escherichia coli TOP10.
-0.0639

Enter shrunken log2 fold change (test system Escherichia coli TOP10) for RRIRFRPPRLPRPRPRPNTGPRP
-0.165

Specify shrunken log2 fold change for RRIRMRPPRLPRPRPRPRKLPRP , system Escherichia coli TOP10.
0.857

Send back Escherichia coli TOP10 shrunken log2 fold change of RRIRSRPPRLPRPRPRPQLWPRP only.
0.0725

# return shrunken log2 fold change of RRIRGRPPRLPRPRPRPISPPRP (system: Escherichia coli TOP10)
-0.0176

State the measured shrunken log2 fold change (Escherichia coli TOP10) of RRIRRRPPRLPRPRPRPPGIPRP
0.612

Quote Escherichia coli TOP10 shrunken log2 fold change for entry RRIRVRPPRLPRPRPRPVHNPRP .
-0.404

Output reported shrunken log2 fold change of the sequence RRIRGRPPRLPRPRPRPWQYPRP on Escherichia coli TOP10.
-0.0381

# assay system Escherichia coli TOP10: give shrunken log2 fold change of RRIRSRPPRLPRPRPRPFWYPRP
-0.185

Consider the sequence RRIRERPPRLPRPRPRPQRAPRP tested on Escherichia coli TOP10; state its shrunken log2 fold change.
0.254

Find the measured shrunken log2 fold change of RRIRDRPPRLPRPRPRPLKAPRP with Escherichia coli TOP10 as test system.
-0.214

State shrunken log2 fold change (Escherichia coli TOP10) of RRIRWRPPRLPRPRPRPVYFPRP .
-0.418

// fetch shrunken log2 fold change for RRIRSRPPRLPRPRPRPAQPPRP ; system: Escherichia coli TOP10
0.181

Please report shrunken log2 fold change with Escherichia coli TOP10 for item RRIRKRPPRLPRPRPRPGLIPRP .
0.13

Look up and report measured shrunken log2 fold change (Escherichia coli TOP10) for the following sequence: RRIRFRPPRLPRPRPRPETEPRP
-0.0257

State the measured shrunken log2 fold change (Escherichia coli TOP10) of RRIRWRPPRLPRPRPRPGNWPRP
0.0533

Report value only: shrunken log2 fold change, Escherichia coli TOP10, RRIRNRPPRLPRPRPRPAQPPRP
-0.0398

State shrunken log2 fold change (Escherichia coli TOP10) of RRIRIRPPRLPRPRPRPPVQPRP .
-0.0716

Print Escherichia coli TOP10 shrunken log2 fold change for RRIRHRPPRLPRPRPRPQSNPRP .
-0.288

Look up and report shrunken log2 fold change, with Escherichia coli TOP10 as system, for RRIRHRPPRLPRPRPRPDNYPRP
-0.0274

Fill in shrunken log2 fold change for RRIRNRPPRLPRPRPRPTQPPRP tested with Escherichia coli TOP10.
0.6

State measured shrunken log2 fold change of the sequence RRIRKRPPRLPRPRPRPAIEPRP with Escherichia coli TOP10.
0.018

Please report shrunken log2 fold change with Escherichia coli TOP10 for item RRIRVRPPRLPRPRPRPLYTPRP .
-0.345

Identify measured shrunken log2 fold change obtained with Escherichia coli TOP10 for RRIRYRPPRLPRPRPRPGHQPRP .
0.0299

Give shrunken log2 fold change for RRIRDRPPRLPRPRPRPERKPRP tested on Escherichia coli TOP10.
0.0234

Quote Escherichia coli TOP10 shrunken log2 fold change for entry RRIRARPPRLPRPRPRPREYPRP .
0.5

Under Escherichia coli TOP10, report shrunken log2 fold change for RRIRCRPPRLPRPRPRPLDRPRP
-0.478

Find the measured shrunken log2 fold change of RRIRERPPRLPRPRPRPDATPRP with Escherichia coli TOP10 as test system.
0.645

Check Escherichia coli TOP10 data and give shrunken log2 fold change for RRIRFRPPRLPRPRPRPILEPRP .
-0.133

Would you please give the reported shrunken log2 fold change of RRIRMRPPRLPRPRPRPHHNPRP with Escherichia coli TOP10?
-0.533

Provide shrunken log2 fold change, recorded with Escherichia coli TOP10, of RRIRFRPPRLPRPRPRPACVPRP
-0.0826

Retrieve shrunken log2 fold change on Escherichia coli TOP10; query RRIRARPPRLPRPRPRPDGAPRP
0.673

GET shrunken log2 fold change where system = Escherichia coli TOP10 and item = RRIRWRPPRLPRPRPRPDFLPRP
-0.221

Report its shrunken log2 fold change with Escherichia coli TOP10 as the test system: RRIRDRPPRLPRPRPRPMIHPRP
0.318

Report value only: shrunken log2 fold change, Escherichia coli TOP10, RRIRQRPPRLPRPRPRPQCRPRP
0.0527

Consider the sequence RRIRTRPPRLPRPRPRPTYTPRP tested on Escherichia coli TOP10; state its shrunken log2 fold change.
-0.496

Quote shrunken log2 fold change with test system Escherichia coli TOP10 for RRIRCRPPRLPRPRPRPVKEPRP
-0.0734

Write down the reported shrunken log2 fold change (system: Escherichia coli TOP10) of RRIRYRPPRLPRPRPRPNEQPRP
0.0039

Quote Escherichia coli TOP10 shrunken log2 fold change for entry RRIRTRPPRLPRPRPRPAPPPRP .
0.525

State measured shrunken log2 fold change of the sequence RRIRARPPRLPRPRPRPPRWPRP with Escherichia coli TOP10.
0.794

// fetch shrunken log2 fold change; item: RRIRLRPPRLPRPRPRPFFFPRP ; system: Escherichia coli TOP10
0.343

Check Escherichia coli TOP10 data and give shrunken log2 fold change for RRIRKRPPRLPRPRPRPHYHPRP .
-0.145

Recall the reported shrunken log2 fold change of RRIRIRPPRLPRPRPRPFAQPRP on Escherichia coli TOP10 and write it down.
-0.108

Tell me its shrunken log2 fold change on Escherichia coli TOP10: RRIRKRPPRLPRPRPRPSLIPRP
-0.0338

// fetch shrunken log2 fold change for RRIRTRPPRLPRPRPRPLQCPRP ; system: Escherichia coli TOP10
0.174

Fill in shrunken log2 fold change for RRIRGRPPRLPRPRPRPCHLPRP tested with Escherichia coli TOP10.
-0.0648

Recall the reported shrunken log2 fold change of RRIRWRPPRLPRPRPRPPWPPRP when tested on Escherichia coli TOP10.
0.503

Report shrunken log2 fold change from Escherichia coli TOP10 testing of RRIRIRPPRLPRPRPRPLYSPRP
-0.674

Look up and report measured shrunken log2 fold change (Escherichia coli TOP10) for the following sequence: RRIRKRPPRLPRPRPRPAKSPRP
0.254

Give shrunken log2 fold change for this entry on Escherichia coli TOP10: RRIRYRPPRLPRPRPRPAWRPRP
0.0762

Provide shrunken log2 fold change, tested on Escherichia coli TOP10, for RRIRIRPPRLPRPRPRPIRLPRP .
-0.41

Provide shrunken log2 fold change, recorded with Escherichia coli TOP10, of RRIRERPPRLPRPRPRPQHYPRP
-0.398

System Escherichia coli TOP10. Read-out shrunken log2 fold change. Item RRIRIRPPRLPRPRPRPRFQPRP . Report value.
-0.0961

Give the observed shrunken log2 fold change of RRIRFRPPRLPRPRPRPEGFPRP for Escherichia coli TOP10.
0.518

Report its shrunken log2 fold change with Escherichia coli TOP10 as the test system: RRIRVRPPRLPRPRPRPRRIPRP
-0.0306

Report shrunken log2 fold change on Escherichia coli TOP10 for this entry: RRIRTRPPRLPRPRPRPHRNPRP
-0.677

Return reported shrunken log2 fold change for target or system Escherichia coli TOP10, item RRIRLRPPRLPRPRPRPADSPRP .
-0.182

Please report shrunken log2 fold change with Escherichia coli TOP10 for item RRIRHRPPRLPRPRPRPEFSPRP .
-0.246

Lab note: record shrunken log2 fold change of RRIRQRPPRLPRPRPRPILKPRP tested on Escherichia coli TOP10.
0.14

Quote Escherichia coli TOP10 shrunken log2 fold change for entry RRIRYRPPRLPRPRPRPEFAPRP .
-0.167

Report shrunken log2 fold change on Escherichia coli TOP10 for this entry: RRIRERPPRLPRPRPRPWILPRP
0.0494

GET shrunken log2 fold change | system: Escherichia coli TOP10 | item: RRIRFRPPRLPRPRPRPIPQPRP;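 also: peptides expressed intracellularly from a pBAD plasmid library in pooled LB shake-flask culture, induced with 0.3% L-arabinose, DNA abundance read by NGS, three biological replicates, DESeq2 with apeglm shrinkage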
0.132
